# System: Solute carrier family 2, facilitated glucose transporter member 4 (Rattus norvegicus, UniProt P19357)
# Sequence (P19357 whole entry): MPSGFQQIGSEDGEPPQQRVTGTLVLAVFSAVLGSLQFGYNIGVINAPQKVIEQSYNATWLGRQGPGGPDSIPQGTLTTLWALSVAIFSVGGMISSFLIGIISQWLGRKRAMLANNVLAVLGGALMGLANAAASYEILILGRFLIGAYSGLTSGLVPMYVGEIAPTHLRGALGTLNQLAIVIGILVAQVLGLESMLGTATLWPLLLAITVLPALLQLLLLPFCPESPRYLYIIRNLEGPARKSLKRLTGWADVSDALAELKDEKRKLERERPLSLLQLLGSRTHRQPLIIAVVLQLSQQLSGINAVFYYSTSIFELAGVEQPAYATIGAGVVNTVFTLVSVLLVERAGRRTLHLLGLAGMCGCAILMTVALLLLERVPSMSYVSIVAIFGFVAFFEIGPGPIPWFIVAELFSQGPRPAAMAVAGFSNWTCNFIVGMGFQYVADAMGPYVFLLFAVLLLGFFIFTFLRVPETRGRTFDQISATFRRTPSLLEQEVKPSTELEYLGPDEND
# Protocol Text: Induction of GLUT4 translocation in rat L6-GLUT4myc differentiated myotube cells after 20 mins by chemiluminescent method
Measurement Kind: EC50 (nM)

COc1ccccc1-c1nnc(Nc2ccc(CC(N)=O)cc2)c2c1CCC2; 4700

a = NC(=O)Cc1ccc(Nc2nnc(-c3ccccc3OCc3cscn3)c3sccc23)c(F)c1
b = CC(C)(C)OC(=O)NCCOCCOc1ccccc1-c1nnc(Nc2ccc(CC(N)=O)cc2F)c2ccsc12
c = COc1ccccc1-c1nnc(Nc2ccc(CC(N)=O)cc2F)c2ccsc12
d = CCOC(=O)NCCCCOc1ccccc1-c1nnc(Nc2ccc(CC(N)=O)cc2F)c2ccsc12
Lookup: Number of compounds to sort: 4. Sort criterion: EC50, ascending. Form entry: ranked labels (order as requested).
Found: b, a, d, c
(b: 24 nM, a: 110 nM, d: 230 nM, c: 650 nM)

* * *

# System: UniProt:P19357
# Protocol Text: Induction of GLUT4 translocation in rat L6-GLUT4myc differentiated myotube cells after 20 mins by chemiluminescent method
pEC50: −log10 of the molar value.
Measurement Kind: pEC50

Worked examples follow.
COCCOc1ccccc1-c1nnc(Nc2ccc(CC(N)=O)cc2F)c2ccsc12; 6.85
NC(=O)Cc1ccc(Nc2nnc(-c3ccccc3OCC3COCCO3)c3sccc23)c(F)c1 (stereo unspecified); 7.12
CC(C)(C)NC(=O)NCCOCCOc1ccccc1-c1nnc(Nc2ccc(CC(N)=O)cc2F)c2ccsc12; 6.92

P = CC(C)(C)OC(=O)NCCCCOc1ccccc1-c1nnc(Nc2ccc(CC(N)=O)cc2F)c2ccsc12
Q = COCCOCCOc1ccccc1-c1nnc(Nc2ccc(CC(N)=O)cc2F)c2ccsc12
Lookup: Would you kindly point out which of P and Q has the smaller pEC50 figure? Kindly give the label for the entry you pick.
Found: Q
